- TARGET DESC: T1, his-tagged B7-H3 (UniProt Q5ZPR3-2 29-245, limits assumed)
- T1 construct: also called CD276; not shown: His tag
- T1 sequence (looked up): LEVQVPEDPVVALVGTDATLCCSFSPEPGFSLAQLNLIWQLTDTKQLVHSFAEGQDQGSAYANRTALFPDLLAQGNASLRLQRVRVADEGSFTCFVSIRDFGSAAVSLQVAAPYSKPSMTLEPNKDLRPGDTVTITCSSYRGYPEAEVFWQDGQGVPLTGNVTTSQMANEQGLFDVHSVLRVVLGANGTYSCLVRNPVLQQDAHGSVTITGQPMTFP
- PROTOCOL: SPR, Carterra LSA; binder captured by anti-human Fc, his-tagged B7-H3 injected
OUTCOME MEASURE: Kd (nM)
Value expressed in nM; do not type the unit.

// lookup Kd for 40511p1.1.A1 scFv-Fc (scFv, V domains shown, Tested as scFv-Fc supernatant) VH: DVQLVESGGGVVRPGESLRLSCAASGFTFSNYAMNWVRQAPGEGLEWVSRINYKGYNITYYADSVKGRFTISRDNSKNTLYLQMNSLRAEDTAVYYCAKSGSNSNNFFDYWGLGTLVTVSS VL: EIVLTQSPGTLSVSPGERATLSCRASQSVNSKLAWYQQRPGQAPRLLIYDASSRATGIPDRFSGSGSGTDFTLTISRLEPEDFAVYYCQQYKNWPPLTFGGGTKVEIK
463

Please report the recorded Kd for 40579p1.C2 scFv-Fc (scFv, V domains shown, Tested as scFv-Fc supernatant) VH: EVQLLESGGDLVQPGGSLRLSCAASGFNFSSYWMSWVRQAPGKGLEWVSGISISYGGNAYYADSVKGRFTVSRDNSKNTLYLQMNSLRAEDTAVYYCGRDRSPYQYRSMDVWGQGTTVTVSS VL: EIVLTQSPATLSVSPGERATFSCRASQTIGNKLAWYQQKPGQAPRLLIFSASTRATDIPDRFSGSGSGTDFTLTISSLQSEDFAVYYCQQYNNWPPLTFGGGTKVEIK .
9.11
